All figures here come from the MegaScale stability set (Tsuboyama et al. 2023).

Item-by-item account of folding stability dG
B1: 1ZHC (parent)
chain: HEFRDEISVLKANNPHFDKIFEKHNQLDDDIKTAEQQNASDAEVSHMKKQKLKLKDEIHSMIIEYREK

Variants of: B1
EXPERIMENT: folding stability dG (cDNA display proteolysis); higher = more stable
DETAILS: PBS, room temperature
Your answer is read as kcal/mol, so omit the unit and give the number.

Sample records with folding stability dG:
mutation_label=K11C quantitative_result=1.05
mutation_label=A34V quantitative_result=-0.863
mutation_label=L27C quantitative_result=0.277
mutation_label=N38I quantitative_result=-0.331
mutation_label=E67Q quantitative_result=1.18

Now examine the next entry.
Asked: Fill in: folding stability dG of "F17R" is ___
Given back: -0.98
